Test system: Lepeophtheirus salmonis
Experiment: Salmon - in vivo efficacy against sea lice using gavage administration
Conditions: po, 168 h, read-out: therapeutic efficacy against (pre-)adult sea lice (% reduction vs control), salmon, 5 mg/kg once by gavage, day -28 infestation, counted day 7
inhibition in vivo at 5 mg/kg listing for selected compounds.
quantity.name: inhibition in vivo at 5 mg/kg (%)

{"columns": ["compound", "quantity.name", "unit.info", "assay.result"],
 "data": [
  ["O=C(Nc1c(F)cc(F)cc1F)c1cc(NC(=O)[C@H]2[C@H](c3cc(Cl)cc(Cl)c3)C2(Cl)Cl)ccc1Cl [Compound 449]", "inhibition in vivo at 5 mg/kg", "%", 80],
  ["O=C(Nc1ncc(F)cc1F)c1cc(NC(=O)[C@H]2[C@H](c3ccc(Cl)c(Cl)c3)C2(Cl)Cl)ccc1Cl [Compound 86]", "inhibition in vivo at 5 mg/kg", "%", 100],
  ["O=C(Nc1cnc(F)cc1F)c1cc(NC(=O)[C@H]2[C@H](c3cc(Cl)cc(Cl)c3)C2(Cl)Cl)ccc1Cl [Compound 455]", "inhibition in vivo at 5 mg/kg", "%", 100],
  ["O=C(Nc1ncc(F)cc1F)c1cc(NC(=O)[C@H]2[C@H](c3ccc(F)c(Cl)c3)C2(Cl)Cl)ccc1Cl [Compound 89]", "inhibition in vivo at 5 mg/kg", "%", 100],
  ["O=C(Nc1cnc(F)cc1F)c1cc(NC(=O)[C@H]2[C@H](c3cc(Cl)c(Cl)c(Cl)c3)C2(Cl)Cl)ccc1Cl [Compound 466]", "inhibition in vivo at 5 mg/kg", "%", 80],
  ["O=C(Nc1ccc(F)cc1F)c1cc(NC(=O)[C@H]2[C@H](c3cc(F)c(F)c(F)c3)C2(Cl)Cl)ccc1Cl [Compound 451]", "inhibition in vivo at 5 mg/kg", "%", 80]
]}
